- assayed-system: mu receptor (Rattus norvegicus)
- Construct: rat whole brain minus cerebellum for mu was homogenized; from tissue; host or cells: brain of male Sprague Dawley rats, whole brain minus cerebellum, homogenate fraction
- test-name: opioid receptor binding assay, [3H] NAL (tritiated naloxone), mu receptor
- Parameters: species or system rat (Male Sprague Dawley), brain minus cerebellum
- assay-conditions: 20 min, 10 nM test compound; [3H] naloxone 0.5 nM; read-out: % displacement at 10 nM
Where a name gives a salt, the structure may show the parent alone.

compound: COC1CCC(OC(=O)CNC(=O)C(Cc2ccccc2)CN2CC[C@@](C)(c3cccc(O)c3)[C@@H](C)C2)CC1 (relative stereo) [Example 92]
inhibition at 0.01 µM: 85%

compound: COc1cccc([C@]2(C)CCN(CC(Cc3ccccc3)C(=O)O)C[C@@H]2C)c1 (single isomer, unassigned) [Example 79]
inhibition at 0.01 µM: 0%

compound: C[C@H]1CN(CC(Cc2ccccc2)C(=O)NCC(=O)OC2CCCCC2)CC[C@@]1(C)c1cccc(O)c1 (stereo partly drawn) [Example 52, monohydrochloride]
inhibition at 0.01 µM: 53%

====

- assayed-system: mu receptor (Rattus norvegicus, UniProt P33535)
- Construct: rat whole brain minus cerebellum for mu was homogenized; from tissue; host or cells: brain of male Sprague Dawley rats, whole brain minus cerebellum, homogenate fraction
- Sequence (P33535 whole entry): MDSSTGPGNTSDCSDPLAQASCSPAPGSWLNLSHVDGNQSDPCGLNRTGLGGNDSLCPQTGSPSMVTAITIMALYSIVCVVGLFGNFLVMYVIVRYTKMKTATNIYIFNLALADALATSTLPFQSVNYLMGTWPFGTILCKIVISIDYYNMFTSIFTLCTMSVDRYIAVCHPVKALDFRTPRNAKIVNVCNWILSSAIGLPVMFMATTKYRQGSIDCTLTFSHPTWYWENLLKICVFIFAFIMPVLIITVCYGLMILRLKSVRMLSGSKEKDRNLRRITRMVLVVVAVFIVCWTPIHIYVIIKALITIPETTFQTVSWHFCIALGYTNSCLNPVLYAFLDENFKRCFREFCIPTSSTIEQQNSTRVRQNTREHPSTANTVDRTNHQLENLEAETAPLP
- test-name: opioid receptor binding assay, [3H] NAL (tritiated naloxone), mu receptor
- Parameters: species or system rat (Male Sprague Dawley), brain minus cerebellum
Counter-ions that a name gives are not always drawn.
Ki class ranges: 0 = under 0.5 nM, 1 = from 0.5 nM up to 1 nM, 2 = 1 nM and over

compound: CNC(=O)CNC(=O)C(CC1CCCCC1)CN1CC[C@@](C)(c2cccc(O)c2)[C@@H](C)C1 (relative stereo) [Example 32, monohydrochloride]
label-class: 1
//
compound: CC(C)CNC(=O)CNC(=O)C(Cc1ccccc1)CN1CC[C@@](C)(c2cccc(O)c2)[C@@H](C)C1 (stereo partly drawn) [Example 50, monohydrate hydrochloride]
label-class: 2
//
compound: C[C@H]1CN(CC(Cc2ccccc2)C(=O)NCC(=O)NCC(=O)O)CC[C@@]1(C)c1cccc(O)c1 (relative stereo) [Example 68, monohydrate]
label-class: 2
//
compound: CCNC(=O)CNC(=O)C(CC1CCCCC1)CN1CC[C@@](C)(c2cccc(O)c2)[C@@H](C)C1 (relative stereo) [Example 31, monohydrochloride monohydrate]
label-class: 0
//
compound: CNC(=O)CNC(=O)C(CCN1CC[C@@](C)(c2cccc(O)c2)[C@@H](C)C1)C1CCCCC1 (relative stereo) [Example 21, hydrochloride]
label-class: 0
//
compound: CCNC(=O)CNC(=O)C(CCN1CC[C@@](C)(c2cccc(O)c2)[C@@H](C)C1)C1CCCCC1 (relative stereo) [Example 22, hydrochloride]
label-class: 0
//
compound: C[C@H]1CN(CC(Cc2ccccc2)C(=O)N(C)CC(=O)O)CC[C@@]1(C)c1cccc(O)c1 (relative stereo) [Example 66, monohydrate]
label-class: 2
//
compound: CCNC(=O)CCCNC(=O)C(Cc1ccccc1)CN1CC[C@@](C)(c2cccc(O)c2)[C@@H](C)C1 (stereo partly drawn) [Example 64, monohydrochloride]
label-class: 2
//
compound: C[C@H]1CN(CC(Cc2ccccc2)C(=O)NCC(=O)NCC(=O)NCc2ccccc2)CC[C@@]1(C)c1cccc(O)c1 (relative stereo) [Example 73]
label-class: 2
//
compound: CNC(=O)CCNC(=O)C(CCN1CC[C@@](C)(c2cccc(O)c2)[C@@H](C)C1)C1CCCCC1 (relative stereo) [Example 18, monohydrochloride]
label-class: 0
//
compound: C[C@H]1CN(CCC(C(=O)NCC(=O)O)C2CCCCC2)CC[C@@]1(C)c1cccc(O)c1 (relative stereo) [Example 27, monohydrate]
label-class: 1
